System: hESC3 Nkx2.5eGFP/w cells
measurement_notes: Differentiation in 96-U bottom ultra-low attachment well plates, GFP area imaging
Assay type: cell-based, human
run_parameters: Induction Day 3; 5 μM; day 14
Item-by-item account of Average GFP μm^2
Quick note: give the figure in μm^2, leave out the unit.

- compound: "O=C(Nc1cccc2cccnc12)c1ccc(N2C(=O)[C@@H]3[C@H](C2=O)[C@@H]2C=C[C@H]3C2)cc1 [IWR-1, reference compound]"
  Average GFP μm^2 [μm^2]: 426.3

The recorded Average GFP μm^2 for O=[N+]([O-])c1cccc(Cl)c1-c1nc(-c2ccc(F)cc2)c(-c2ccncc2)[nH]1 [ZQX-25] is 163.6

The recorded Average GFP μm^2 for Cc1ccccc1-c1nc(-c2ccc(F)cc2)c(-c2ccncc2)[nH]1 [ZQX-29] is 39.9

The recorded Average GFP μm^2 for Nc1ccccc1-c1nc(-c2ccc(F)cc2)c(-c2ccncc2)[nH]1 [ZQX-31] is 96.0

---

target_system: CK1δ (Homo sapiens (Human), UniProt P48730)
Sequence (P48730 whole entry): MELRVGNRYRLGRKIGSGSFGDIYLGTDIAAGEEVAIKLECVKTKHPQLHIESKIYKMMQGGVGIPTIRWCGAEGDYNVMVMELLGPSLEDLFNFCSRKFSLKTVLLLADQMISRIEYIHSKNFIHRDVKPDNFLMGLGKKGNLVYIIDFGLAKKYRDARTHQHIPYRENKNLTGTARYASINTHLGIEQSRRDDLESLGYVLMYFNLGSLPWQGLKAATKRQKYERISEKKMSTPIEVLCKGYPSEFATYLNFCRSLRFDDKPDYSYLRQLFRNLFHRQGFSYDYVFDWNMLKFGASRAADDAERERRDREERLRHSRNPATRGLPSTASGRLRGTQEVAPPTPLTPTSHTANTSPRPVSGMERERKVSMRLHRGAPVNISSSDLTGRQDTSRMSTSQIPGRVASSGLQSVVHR
measurement_notes: LanthaScreen Eu kinase binding assay, CK1δ
run_parameters: read-out: CK1δ IC50 ± SEM
Item-by-item account of IC50
Quick note: give the figure in nM, leave out the unit.

- compound: "Cc1cccc(-c2nc(-c3ccccc3F)[nH]c2-c2ccncc2)c1"
  target_system: "CK1δ (Homo sapiens (Human), UniProt P48730)"
  IC50, nM: 454
- compound: "Cc1cccc(-c2nc(-c3ccc(C(=N)NO)cc3)[nH]c2-c2ccncc2)c1"
  target_system: "CK1δ (Homo sapiens (Human), UniProt P48730)"
  IC50, nM: 889
- compound: "Cc1cccc(-c2nc(-c3ccc([S+](C)[O-])cc3)[nH]c2C2=CCOCC2)c1 (stereo not shown)"
  target_system: "CK1δ (Homo sapiens (Human), UniProt P48730)"
  IC50, nM: 2540
- compound: "C[S+]([O-])c1ccc(-c2nc(-c3ccc(F)cc3)c(C3=CCOCC3)[nH]2)cc1 (stereo not shown)"
  target_system: "CK1δ (Homo sapiens (Human), UniProt P48730)"
  IC50, nM: 1490

The recorded IC50 for `Fc1ccc(-c2nc(-c3ccc4ccccc4c3F)[nH]c2-c2ccncc2)cc1` is 15

The recorded IC50 for `Fc1ccc(-c2nc(-c3c(F)cccc3F)[nH]c2C2=CCOCC2)cc1` is 548

The recorded IC50 for `Cc1cccc(-c2nc(-c3ccc(O)cc3)[nH]c2-c2ccncc2)c1` is 1280

The recorded IC50 for `Cc1cccc(-c2nc(-c3ccc(C(=O)O)cc3)[nH]c2-c2ccncc2)c1` is 4710

The recorded IC50 for `Fc1ccc(-c2nc(-c3ccccc3F)[nH]c2-c2ccncc2)cc1` is 32

---

Item-by-item account of pIC50
target_system: CK1ϵ (Homo sapiens (Human))
Sequence (P49674 whole entry): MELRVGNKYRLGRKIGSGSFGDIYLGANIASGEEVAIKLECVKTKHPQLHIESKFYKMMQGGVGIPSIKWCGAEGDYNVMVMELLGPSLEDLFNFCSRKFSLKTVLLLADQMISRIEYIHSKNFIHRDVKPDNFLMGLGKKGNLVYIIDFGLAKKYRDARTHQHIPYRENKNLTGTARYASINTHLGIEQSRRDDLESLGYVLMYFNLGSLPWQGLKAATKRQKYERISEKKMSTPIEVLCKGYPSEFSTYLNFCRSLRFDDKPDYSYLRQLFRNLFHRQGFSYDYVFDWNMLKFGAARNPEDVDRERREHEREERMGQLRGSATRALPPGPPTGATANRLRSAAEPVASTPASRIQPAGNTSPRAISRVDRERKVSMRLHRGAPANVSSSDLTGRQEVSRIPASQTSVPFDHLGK
measurement_notes: LanthaScreen Eu kinase binding assay, CK1ϵ
run_parameters: Table 3; read-out: IC50 Ck1ε
Convention used: pIC50 is expressed as -log10 of the molar concentration.

As a guide, the following entries are already answered.
- compound: "Oc1ccc(-c2nc(-c3ccc(F)cc3)c(-c3ccncc3)[nH]2)cc1 [SB202190, reference compound]"
  pIC50: 7.08
- compound: "Fc1ccc(-c2nc(-c3c(F)cccc3F)[nH]c2-c2ccncc2)cc1"
  pIC50: 8.19

The recorded pIC50 for Cc1cccc(-c2nc(-c3ccc([S+](C)[O-])cc3)[nH]c2-c2ccncc2)c1 (stereo not shown) is 6.56

The recorded pIC50 for C[S+]([O-])c1ccc(-c2nc(-c3ccc(F)cc3)c(C3=CCOCC3)[nH]2)cc1 (stereo not shown) is 5.23

The recorded pIC50 for `Cc1cccc(-c2nc(-c3ccc(C(N)=O)cc3)[nH]c2-c2ccncc2)c1` is 6.52

The recorded pIC50 for `Cc1cccc(-c2nc(-c3ccc(O)cc3)[nH]c2-c2ccncc2)c1` is 6.39

The recorded pIC50 for `Cc1cccc(-c2nc(-c3ccccc3F)[nH]c2-c2ccncc2)c1` is 6.82

---

Item-by-item account of pIC50
target_system: p38α MAPK (Homo sapiens (Human), UniProt Q16539)
Sequence (Q16539 whole entry, looked up): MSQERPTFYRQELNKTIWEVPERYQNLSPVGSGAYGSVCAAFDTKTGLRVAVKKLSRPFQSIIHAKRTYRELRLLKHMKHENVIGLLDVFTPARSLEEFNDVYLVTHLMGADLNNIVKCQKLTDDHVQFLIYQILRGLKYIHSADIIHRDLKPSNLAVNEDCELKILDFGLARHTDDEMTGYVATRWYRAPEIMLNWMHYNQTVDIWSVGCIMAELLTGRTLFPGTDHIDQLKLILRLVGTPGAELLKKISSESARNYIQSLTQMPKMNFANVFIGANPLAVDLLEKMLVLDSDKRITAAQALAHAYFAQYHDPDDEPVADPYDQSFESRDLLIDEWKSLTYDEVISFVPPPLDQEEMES
measurement_notes: HitHunter p38 MAP kinase binding assay
run_parameters: read-out: p38α MAPK IC50 ± SEM
Convention used: pIC50 is expressed as -log10 of the molar concentration.

As a guide, the following entries are already answered.
- compound: "Fc1c(-c2nc(-c3cccc(C(F)(F)F)c3)c(-c3ccncc3)[nH]2)ccc2ccccc12"
  target_system: "p38α MAPK (Homo sapiens (Human), UniProt Q16539)"
  pIC50: 5.58
- compound: "Cc1cccc(-c2nc(-c3ccc(O)cc3)[nH]c2-c2ccncc2)c1"
  target_system: "p38α MAPK (Homo sapiens (Human), UniProt Q16539)"
  pIC50: 8.08
- compound: "Cc1cccc(-c2nc(-c3c(F)cccc3F)[nH]c2-c2ccncc2)c1"
  target_system: "p38α MAPK (Homo sapiens (Human), UniProt Q16539)"
  pIC50: 8.37
- compound: "Fc1ccc(-c2nc(-c3ccccc3F)[nH]c2-c2ccncc2)cc1"
  target_system: "p38α MAPK (Homo sapiens (Human), UniProt Q16539)"
  pIC50: 7.70
- compound: "Fc1ccc(-c2nc(-c3ccccc3F)[nH]c2C2=CCOCC2)cc1"
  target_system: "p38α MAPK (Homo sapiens (Human), UniProt Q16539)"
  pIC50: 6.25
- compound: "Cc1cccc(-c2nc(-c3ccccc3F)[nH]c2-c2ccncc2)c1"
  target_system: "p38α MAPK (Homo sapiens (Human), UniProt Q16539)"
  pIC50: 8.33
- compound: "Cc1cccc(-c2nc(-c3ccc4ccccc4c3)[nH]c2-c2ccncc2)c1"
  target_system: "p38α MAPK (Homo sapiens (Human), UniProt Q16539)"
  pIC50: 7.01
- compound: "Cc1ccc(-c2nc(-c3ccccc3F)[nH]c2C2=CCOCC2)cc1"
  target_system: "p38α MAPK (Homo sapiens (Human), UniProt Q16539)"
  pIC50: 5.47
- compound: "Oc1ccc(-c2nc(-c3ccc(F)cc3)c(C3=CCOCC3)[nH]2)cc1"
  target_system: "p38α MAPK (Homo sapiens (Human), UniProt Q16539)"
  pIC50: 6.83
- compound: "Cc1cccc(-c2nc(-c3ccccc3Cl)[nH]c2C2=CCOCC2)c1"
  target_system: "p38α MAPK (Homo sapiens (Human), UniProt Q16539)"
  pIC50: 7.37

The recorded pIC50 for `Fc1ccc(-c2nc(-c3c(F)cccc3F)[nH]c2-c2ccncc2)cc1` is 8.17

The recorded pIC50 for `Cc1cccc(-c2nc(-c3ccccc3F)[nH]c2C2=CCOCC2)c1` is 7.05

The recorded pIC50 for `Cc1cccc(-c2nc(-c3ccc(O)cc3)[nH]c2C2=CCOCC2)c1` is 7.48

The recorded pIC50 for `Fc1ccc(-c2nc(-c3ccc4ccccc4c3F)[nH]c2C2=CCOCC2)cc1` is 5.64

The recorded pIC50 for `Cc1cccc(-c2nc(-c3ccc4ccccc4c3F)[nH]c2-c2ccncc2)c1` is 7.70

The recorded pIC50 for `Cc1cccc(-c2nc(-c3c(F)cccc3F)[nH]c2C2=CCOCC2)c1` is 7.85

The recorded pIC50 for Cc1cccc(-c2nc(-c3ccc([S+](C)[O-])cc3)[nH]c2C2=CCOCC2)c1 (stereo not drawn) is 7.14

The recorded pIC50 for C[S+]([O-])c1ccc(-c2nc(-c3ccc(F)cc3)c(C3=CCOCC3)[nH]2)cc1 (stereo not drawn) is 6.34

---

target_system: UniProtKB Q16539
measurement_notes: LanthaScreen Eu kinase binding assay, p38 MAPK (IM-32 to IM-44)
run_parameters: LanthaScreen Eu binding assay (IM-32 to IM-44); read-out: p38α MAPK IC50 ± SEM
readout_name: IC50 (nM)
Quick note: give the figure in nM, leave out the unit.

As a guide, the following entries are already answered.
- molecule: "Cc1cccc(-c2nc(-c3ccc(S(C)(=O)=O)cc3)[nH]c2-c2ccncc2)c1 [IM-33]"
  IC50 / nM: 9.5
- molecule: "Cc1cccc(-c2nc(-c3ccc(C(N)=O)cc3)[nH]c2-c2ccncc2)c1 [IM-39]"
  IC50 / nM: 2.7
- molecule: "Cc1cccc(-c2nc(-c3ccc(C(=O)O)cc3)[nH]c2-c2ccncc2)c1 [IM-38]"
  IC50 / nM: 3.3
- molecule: "Cc1cccc(-c2nc(-c3ccc(NS(C)(=O)=O)cc3)[nH]c2-c2ccncc2)c1 [IM-35]"
  IC50 / nM: 5
- molecule: "Cc1cccc(-c2nc(CN(C)C)[nH]c2-c2ccncc2)c1 [IM-42]"
  IC50 / nM: 26
- molecule: "Cc1cccc(-c2nc(-c3ccc(N)cc3)[nH]c2-c2ccncc2)c1 [IM-34]"
  IC50 / nM: 2.8
- molecule: "COC(=O)c1ccc(-c2nc(-c3cccc(C)c3)c(-c3ccncc3)[nH]2)cc1 [IM-40]"
  IC50 / nM: 3.7
- molecule: "Cc1cccc(-c2nc(C(O)C3=CCCCC3)[nH]c2-c2ccncc2)c1 (racemic) [IM-43]"
  IC50 / nM: 11
- molecule: "Cc1cccc(-c2nc(C#CCCO)[nH]c2-c2ccncc2)c1 [IM-41]"
  IC50 / nM: 47
- molecule: "Cc1cccc(-c2nc(-c3ccc(C#N)cc3)[nH]c2-c2ccncc2)c1 [IM-36]"
  IC50 / nM: 5.3

The recorded IC50 for Cc1cccc(-c2nc(-c3ccc(C(=N)NO)cc3)[nH]c2-c2ccncc2)c1 [IM-37] is 3.2

The recorded IC50 for Cc1cccc(-c2nc[nH]c2-c2ccncc2)c1 [IM-44] is 45

The recorded IC50 for Cc1cccc(-c2nc(-c3ccc([N+](=O)[O-])cc3)[nH]c2-c2ccncc2)c1 [IM-32] is 4.4
